Target Desc: Ephrin type-A receptor 3 (Homo sapiens);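 further: mean inhibition value reported from the GSK PKIS kinase profiling screen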
Sequence (whole entry): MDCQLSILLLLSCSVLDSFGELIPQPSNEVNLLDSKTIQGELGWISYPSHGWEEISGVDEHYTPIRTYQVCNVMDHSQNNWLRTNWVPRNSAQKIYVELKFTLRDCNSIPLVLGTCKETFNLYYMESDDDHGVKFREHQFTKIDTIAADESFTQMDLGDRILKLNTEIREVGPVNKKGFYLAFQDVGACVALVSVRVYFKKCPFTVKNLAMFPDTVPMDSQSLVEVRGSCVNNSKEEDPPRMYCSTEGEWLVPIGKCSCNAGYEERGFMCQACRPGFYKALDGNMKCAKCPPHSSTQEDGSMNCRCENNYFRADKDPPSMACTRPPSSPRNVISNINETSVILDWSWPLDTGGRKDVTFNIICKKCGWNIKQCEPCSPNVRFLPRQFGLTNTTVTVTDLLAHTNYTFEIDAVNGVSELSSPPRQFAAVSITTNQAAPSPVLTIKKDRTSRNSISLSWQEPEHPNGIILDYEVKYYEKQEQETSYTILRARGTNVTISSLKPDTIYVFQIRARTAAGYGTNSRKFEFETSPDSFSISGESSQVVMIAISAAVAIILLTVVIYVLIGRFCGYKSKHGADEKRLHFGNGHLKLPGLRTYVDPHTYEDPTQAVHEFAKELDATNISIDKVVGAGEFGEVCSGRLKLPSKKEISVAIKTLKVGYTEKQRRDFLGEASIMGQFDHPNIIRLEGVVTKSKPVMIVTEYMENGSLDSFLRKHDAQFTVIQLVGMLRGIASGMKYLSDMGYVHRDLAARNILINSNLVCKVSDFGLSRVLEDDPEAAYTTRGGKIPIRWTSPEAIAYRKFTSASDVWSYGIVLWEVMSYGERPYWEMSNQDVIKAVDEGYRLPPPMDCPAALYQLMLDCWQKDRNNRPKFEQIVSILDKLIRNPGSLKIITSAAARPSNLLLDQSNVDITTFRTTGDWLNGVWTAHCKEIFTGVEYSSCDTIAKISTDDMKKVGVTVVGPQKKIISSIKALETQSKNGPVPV
Test Context: at 1 µM
Form field: inhibition (one value per entry).
Assay Readout: inhibition (%)

- Structure As Smiles: "Nc1nonc1-c1nc2cnccc2n1C1CCCCC1"
  Target Desc: "Ephrin type-A receptor 3 (Homo sapiens)"
  Measured Number: -1.98
- Structure As Smiles: "Fc1ccc(-c2ncn(C3CCNCC3)c2-c2ccnc(Oc3ccccc3)n2)cc1"
  Target Desc: "Ephrin type-A receptor 3 (Homo sapiens)"
  Measured Number: -1.53
- Structure As Smiles: "CCn1c(-c2nonc2N)nc2c(C#CC(C)(C)O)ncc(OCC3CCNCC3)c21"
  Target Desc: "Ephrin type-A receptor 3 (Homo sapiens)"
  Measured Number: -1.92
- Structure As Smiles: "COc1cccc(-n2ncc3c(N/N=C/c4ccncc4)ncnc32)c1"
  Target Desc: "Ephrin type-A receptor 3 (Homo sapiens)"
  Measured Number: 6.97

====

Target Desc: Phosphatidylinositol 4-kinase beta (Homo sapiens) (UniProt Q9UBF8);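 further: values are mean percent inhibition of PI4K-beta activity, averaged over replicate measurements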
Sequence (Q9UBF8 2-816 limits assumed): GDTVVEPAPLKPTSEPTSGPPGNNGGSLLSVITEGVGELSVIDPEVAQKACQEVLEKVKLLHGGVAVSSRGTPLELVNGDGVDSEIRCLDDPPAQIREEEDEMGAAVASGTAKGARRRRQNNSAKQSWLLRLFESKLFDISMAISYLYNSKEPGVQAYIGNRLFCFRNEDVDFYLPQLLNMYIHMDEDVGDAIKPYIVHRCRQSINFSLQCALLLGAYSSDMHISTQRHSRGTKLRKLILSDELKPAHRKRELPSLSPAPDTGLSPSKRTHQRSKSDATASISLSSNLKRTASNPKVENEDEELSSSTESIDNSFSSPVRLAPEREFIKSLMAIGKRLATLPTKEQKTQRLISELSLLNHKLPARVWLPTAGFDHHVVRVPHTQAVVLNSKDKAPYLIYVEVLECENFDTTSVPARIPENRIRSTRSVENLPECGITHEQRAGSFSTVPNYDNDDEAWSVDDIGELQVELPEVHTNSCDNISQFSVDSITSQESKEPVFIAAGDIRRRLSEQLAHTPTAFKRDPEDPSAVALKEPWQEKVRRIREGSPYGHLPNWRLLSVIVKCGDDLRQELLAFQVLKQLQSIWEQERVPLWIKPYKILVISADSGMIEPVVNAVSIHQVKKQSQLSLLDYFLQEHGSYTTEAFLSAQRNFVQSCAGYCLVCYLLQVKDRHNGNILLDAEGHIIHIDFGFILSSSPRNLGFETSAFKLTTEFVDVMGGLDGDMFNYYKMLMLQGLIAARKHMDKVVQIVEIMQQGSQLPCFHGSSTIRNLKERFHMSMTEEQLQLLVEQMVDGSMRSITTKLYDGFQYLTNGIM
Test Context: at 1 µM
Form field: inhibition (one value per entry).

- Structure As Smiles: "COc1cc(C=NNc2ncnc3c2cnn3Cc2ccccc2)ccc1O"
  Target Desc: "Phosphatidylinositol 4-kinase beta (Homo sapiens) (UniProt Q9UBF8)"
  Measurement Unit: "%"
  inhibition: 2.84
- Structure As Smiles: "COc1cc2c(cc1Nc1nc(Nc3ccsc3C(N)=O)c3cc[nH]c3n1)N(C(=O)CN(C)C)CCC2"
  Target Desc: "Phosphatidylinositol 4-kinase beta (Homo sapiens) (UniProt Q9UBF8)"
  Measurement Unit: "%"
  inhibition: -3.17
- Structure As Smiles: "CCn1c(-c2nonc2N)nc2c(C#CCN)ncc(OCCCN)c21"
  Target Desc: "Phosphatidylinositol 4-kinase beta (Homo sapiens) (UniProt Q9UBF8)"
  Measurement Unit: "%"
  inhibition: -2.08
- Structure As Smiles: "Fc1ccc(-c2ncn(C3CCNCC3)c2-c2ccnc(Oc3ccccc3)n2)cc1"
  Target Desc: "Phosphatidylinositol 4-kinase beta (Homo sapiens) (UniProt Q9UBF8)"
  Measurement Unit: "%"
  inhibition: 2.57
